Data origin: ChEMBL document CHEMBL4038278

- method: Cytotoxicity against human MT4 cells assessed as reduction in cell viability after 5 days by MTT assay
- Type: cell-based
Checkbox rule: CC50 at 120 h lower than 100 µM = label 1; CC50 at 120 h not lower than 100 µM = label 0.

# example entries with known answers
INSERT INTO assay_data (structurenotation, class) VALUES
  ('N#Cc1ccc(Nc2nccc(OCc3ccc(Br)cc3F)n2)cc1', 'label 0'),
  ('N#Cc1ccc(Nc2nccc(OCc3ccccc3)n2)cc1', 'label 1');

Item CN(C)c1ccnc(Nc2ccc(C#N)cc2)n1 : CC50 at 120 h beneath 100 µM, strictly?
label 1

Field: below-cutoff. Rule: recorded CC50 at 120 h strictly less than 100 µM. Subject: N#Cc1ccc(Nc2nccc(OCc3ccc4ccccc4c3)n2)cc1
label 0

Quick check: does N#Cc1ccc(Nc2nccc(OCc3cccc4ccccc34)n2)cc1 have CC50 at 120 h under 100 µM?
label 1

Regarding N#Cc1ccc(Nc2nccc(OCc3ccccc3C(F)(F)F)n2)cc1 , kindly confirm whether its CC50 at 120 h is beneath 100 µM.
label 0

I wonder whether N#Cc1ccc(Nc2nccc(OCc3cccc(C#N)c3)n2)cc1 has CC50 at 120 h below 100 µM. Can you tell?
label 1

Given N#Cc1ccc(Nc2nccc(OCc3ccccc3Br)n2)cc1 , is recorded CC50 at 120 h strictly lower than 100 µM?
label 0

Is CC50 at 120 h of N#Cc1ccc(Nc2nccc(OCc3cccc(Br)c3)n2)cc1 strictly below 100 µM?
label 0

Report whether reported CC50 at 120 h is lower than 100 µM (strictly) for N#Cc1ccc(Nc2nccc(OCc3cccc(Cl)c3)n2)cc1
label 0

Record N#Cc1ccc(Nc2nccc(OCc3ccccc3F)n2)cc1 : is its CC50 at 120 h strictly below 100 µM?
label 0
